The following binders are shown together with reported Phage binding ELISA signal, Anti-PSMA Fab with PSMA antigen values.
biological target: T1, PSMA Fab (006 PSMA Fab); assay: clonal phage ELISA on captured PSMA Fab pre-incubated with PSMA antigen as competitor;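 note: crude clonal phage supernatants added to wells without washing away the PSMA competitor, bound phage detected by HRP-conjugated anti-M13 antibody, reference wells received blocking buffer only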
T1 construct: also called Anti-PSMA Fab
readout.label: Phage binding ELISA signal, Anti-PSMA Fab with PSMA antigen

{"binder": "GTMKCEPAWMCEGF [Phage-3674]", "readout.number": 0.106}
{"binder": "DERMCRPAWMCEGL [Phage-3682]", "readout.number": 0.102}
{"binder": "ERPACVPMWMCTGL [Phage-3684]", "readout.number": 0.0929}
{"binder": "VIPKCEPKWMCHSL [Phage-3678]", "readout.number": 0.0649}
{"binder": "LVKHCVPDWMCSGF [Phage-3677]", "readout.number": 0.101}
{"binder": "STSWCSPPWMCEGF [Phage-3683]", "readout.number": 0.0631}
